System: KHYG-1 (IL-2 2.5 ng/mL)
Measurement Notes: percent inhibition of viability; higher = more inhibition
Experimental Setup: 72 h; 1000 nM
API: label(entry) gives T if the entry's percent inhibition of viability is strictly smaller than 50%; on equality or larger values it gives F.

>  <Compound>
O=C(Nc1ccc2[nH]nc(-c3ccncc3)c2c1)[C@@H]1CCN(CC(=O)N2CCN(c3ccc(-c4ncccn4)cc3)CC2)C1 (max concentration tested 10000 nM)

>  <Assayed Target>
KHYG-1 (IL-2 2.5 ng/mL)

>  <Class Label>
T

$$$$
>  <Compound>
CCn1c(-c2nonc2N)nc2c(C#CC(C)(C)O)ncc(OC[C@H]3CCCNC3)c21 (max concentration tested 10000 nM)

>  <Assayed Target>
KHYG-1 (IL-2 2.5 ng/mL)

>  <Class Label>
T

$$$$
>  <Compound>
CC(=O)NCC(=O)N1[C@@H]2CC[C@H]1c1ccc(Nc3ncc(C(F)(F)F)c(NC4CCC4)n3)cc12 (max concentration tested 10000 nM)

>  <Assayed Target>
KHYG-1 (IL-2 2.5 ng/mL)

>  <Class Label>
F

$$$$
>  <Compound>
C#Cc1cccc(Nc2ncnc3cc4c(cc23)OCCOCCOCCO4)c1 [Icotinib] (max concentration tested 10000 nM)

>  <Assayed Target>
KHYG-1 (IL-2 2.5 ng/mL)

>  <Class Label>
T

$$$$
>  <Compound>
CN(c1ncccc1CNc1nc(Nc2ccc3c(c2)CC(=O)N3)ncc1C(F)(F)F)S(C)(=O)=O (max concentration tested 10000 nM)

>  <Assayed Target>
KHYG-1 (IL-2 2.5 ng/mL)

>  <Class Label>
T

$$$$
>  <Compound>
CCN1CCN(c2ccc(Nc3cc(N(C)C(=O)Nc4c(Cl)c(OC)cc(OC)c4Cl)ncn3)cc2)CC1 [NVP-BGJ398] (max concentration tested 1000 nM)

>  <Assayed Target>
KHYG-1 (IL-2 2.5 ng/mL)

>  <Class Label>
T

$$$$
>  <Compound>
Cc1c2oc3c(C)ccc(C(=O)N[C@@H]4C(=O)N[C@H](C(C)C)C(=O)N5CCC[C@H]5C(=O)N(C)CC(=O)N(C)[C@@H](C(C)C)C(=O)O[C@@H]4C)c3nc-2c(C(=O)N[C@@H]2C(=O)N[C@H](C(C)C)C(=O)N3CCC[C@H]3C(=O)N(C)CC(=O)N(C)[C@@H](C(C)C)C(=O)O[C@@H]2C)c(N)c1=O [Dactinomycin] (max concentration tested 1000 nM)

>  <Assayed Target>
KHYG-1 (IL-2 2.5 ng/mL);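 further: normalised to DMSO-only wells as negative and benzethonium chloride as positive control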

>  <Class Label>
F

$$$$
>  <Compound>
COc1cccc2c1c(O)c(C(=O)N(C)c1ccc(C(F)(F)F)cc1)c(=O)n2C [Tasquinimod] (max concentration tested 10000 nM)

>  <Assayed Target>
KHYG-1 (IL-2 2.5 ng/mL);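 further: normalised to DMSO-only wells as negative and benzethonium chloride as positive control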

>  <Class Label>
T

$$$$
>  <Compound>
C=CC[C@@H]1/C=C(\C)C[C@H](C)C[C@H](OC)[C@H]2O[C@@](O)(C(=O)C(=O)N3CCCC[C@H]3C(=O)O[C@H](/C(C)=C/[C@@H]3CC[C@@H](O)[C@H](OC)C3)[C@H](C)[C@@H](O)CC1=O)[C@H](C)C[C@@H]2OC [Tacrolimus] (max concentration tested 10000 nM)

>  <Assayed Target>
KHYG-1 (IL-2 2.5 ng/mL);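 further: normalised to DMSO-only wells as negative and benzethonium chloride as positive control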

>  <Class Label>
T

$$$$
>  <Compound>
Cc1cc(Nc2cc(CN3CCOCC3)c3nc(C)c(Cc4ccc(Cl)cc4F)n3n2)n[nH]1 [Gandotinib] (max concentration tested 10000 nM)

>  <Assayed Target>
KHYG-1 (IL-2 2.5 ng/mL);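 further: normalised to DMSO-only wells as negative and benzethonium chloride as positive control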

>  <Class Label>
F

$$$$
